Target: human PGI2 receptors (hIP) (Homo sapiens)
Construct: expressed in transfected cells; host or cells: CHO-K1
Sequence (P43119 whole entry): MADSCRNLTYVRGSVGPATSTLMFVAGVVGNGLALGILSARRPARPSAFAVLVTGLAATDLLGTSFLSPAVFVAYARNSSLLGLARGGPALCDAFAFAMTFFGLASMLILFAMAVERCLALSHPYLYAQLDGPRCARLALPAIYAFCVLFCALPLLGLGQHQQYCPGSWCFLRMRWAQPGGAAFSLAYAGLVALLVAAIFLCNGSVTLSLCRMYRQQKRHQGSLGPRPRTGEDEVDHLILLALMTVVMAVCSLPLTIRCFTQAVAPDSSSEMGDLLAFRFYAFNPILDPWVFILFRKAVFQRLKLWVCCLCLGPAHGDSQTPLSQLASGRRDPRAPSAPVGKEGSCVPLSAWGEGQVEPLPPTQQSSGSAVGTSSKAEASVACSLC
Experiment: Method A: positive allosteric modulator activity, cAMP in CHO/hIP cells with 100 pM iloprost
Format: cell-based
Conditions: cAMP relative to 100 pM iloprost alone, test compound 10 uM
experimental_readout: T/C % (%)

# compound, experimental_readout, readout_value
records = [
    ("COc1ccc(C(c2nnnn2C2CCCCC2)N2CCc3ccccc3C2)cc1 (stereo not shown)", "T/C %", 111),
    ("COc1cc(C(c2nnnn2C2CCCCC2)N2CCc3ccccc3C2)ccc1O (stereo not shown)", "T/C %", 97),
    ("Oc1ccc(C(c2nnnn2Cc2ccc(F)cc2)N2CCc3ccccc3C2)cc1 (stereo not shown)", "T/C %", 113),
    ("COc1ccc(Cn2nnnc2C(c2ccc(OC)cc2)N2CCc3ccccc3C2)cc1 (stereo not shown)", "T/C %", 105),
]
